- Test system: THP-1
- PROTOCOL_NOTES: Induction of LPS-B-induced TNF-alpha production in human THP1 cells at 60 uM after 4 hrs
- Type: functional
Below, each entry is listed alongside its reported Activity.
Enter your answer as a number in %; do not include the unit.

                           molecular_string  target_or_system  obs_value
0  C#CCOc1cc2c(c(OCC#C)c1OC)[C@@H]1O[C@H](CO)[C@@H](O)[C@H](O)[C@H]1OC2=O             THP-1      27.56
1  COc1c(OC(C)C)cc2c(c1OC(C)C)[C@@H]1O[C@H](CO)[C@@H](O)[C@H](O)[C@H]1OC2=O             THP-1       8.44
2  COc1c(OCC#N)cc2c(c1OCC#N)[C@@H]1O[C@H](CO)[C@@H](O)[C@H](O)[C@H]1OC2=O             THP-1      26.21
3  C=CCCOc1cc2c(c(OCCC=C)c1OC)[C@@H]1O[C@H](CO)[C@@H](O)[C@H](O)[C@H]1OC2=O             THP-1      13.27

Kindly review the next compound as well.
Request: Returns the measured Activity for the input compound. Input: C=CCOc1cc2c(c(OCC=C)c1OC)[C@@H]1O[C@H](CO)[C@@H](O)[C@H](O)[C@H]1OC2=O
Response: 18.41

* * *

- System: THP-1
- PROTOCOL_NOTES: Antiinflammatory activity in human THP1 cells assessed as inhibition of LPS-B-induced TNF-alpha production at 60 uM after 4 hrs
- Type: functional
- EXPERIMENTAL_CONTEXT: THP-1, 4 h
Below, each entry is listed alongside its reported inhibition at 60 µM.
Enter your answer as a number in %; do not include the unit.

Some solved entries appear below for comparison.
>>> print(df.to_string())
                           molecular_string  obs_value
0  CCOC(=O)COc1cc2c(c(OCC(=O)OCC)c1OC)[C@@H]1O[C@H](CO)[C@@H](O)[C@H](O)[C@H]1OC2=O       96.2
1  C=CCCCCOc1cc2c(c(OCCCCC=C)c1OC)[C@@H]1O[C@H](CO)[C@@H](O)[C@H](O)[C@H]1OC2=O       17.7
2  CCCCCCCOc1cc2c(c(OCCCCCCC)c1OC)[C@@H]1O[C@H](CO)[C@@H](O)[C@H](O)[C@H]1OC2=O       28.7
3  COc1c(OCC(=O)OC(C)(C)C)cc2c(c1OCC(=O)OC(C)(C)C)[C@@H]1O[C@H](CO)[C@@H](O)[C@H](O)[C@H]1OC2=O        9.6
4  COc1cc2c(c(OC)c1OC)[C@@H]1O[C@H](CO)[C@@H](O)[C@H](O)[C@H]1OC2=O       0.44
5  CCCCCOc1cc2c(c(OCCCCC)c1OC)[C@@H]1O[C@H](CO)[C@@H](O)[C@H](O)[C@H]1OC2=O       20.9
6  CCOc1cc2c(c(OCC)c1OC)[C@@H]1O[C@H](CO)[C@@H](O)[C@H](O)[C@H]1OC2=O       98.6

Kindly review the next compound as well.
Request: Returns the measured inhibition at 60 µM for the input compound. Input: CCCCOc1cc2c(c(OCCCC)c1OC)[C@@H]1O[C@H](CO)[C@@H](O)[C@H](O)[C@H]1OC2=O
Response: 26.3
